Assay: folding stability dG unfold from chymotrypsin proteolysis; higher = more stable
folding stability dG unfold values, listed per item
The reply must contain the numeric value and, after it, the unit.

// known answers, use as guide
SAGGSAGGSAGGSKVNDVTAEKNFLVFTEDGRVLGKGEVERAFAAGAGPIGAVPLPPGASAGGSAGGSAGGS [r4_47_TrMRF] : -0.54 kcal/mol
SAGGSAGGSSQRIKIEDIEPPPNGQWRVRIKMPNGKEREVTMPPDKLEIELPPNITDVSLWPVSAGGSAGGS [r20_194_TrROS] : 3.91 kcal/mol
SAGGPPVIRFPTAEIPASGTIEDIVAAIERATGEPLPEELVEQILNGKTIEEIIELLKKRGYPVEYLSAGGS [r16_601_JUSTAS] : 3.11 kcal/mol
SAGGSAGGSAETVTITLTVPPGASVEEILAALKAKYPDITSVSVERREDGYLKVTVTVRLDSAGGSAGGSAG [r3_371_TrROS_Hall] : 4.02 kcal/mol
SAGGSAGGSAGGKLTLKLGDYEVEVEWNPDEDVFIAEFPGDPRIARLRIPDDKIEIEPIESAGGSAGGSAGG [r7_156_TrMRF] : 0.819 kcal/mol

# input folding stability dG unfold for SAGGSAGGSVIPYFDENAVALLVKGPGDYYRIIFKPNDGYLVLLLPKEVIKSKPIPIGELLKKSAGGSAGGS [r20_90_TrMRF] ?
# output 1.33 kcal/mol

# input folding stability dG unfold for SAGGMTLTLVLEANPPEAVEVAVARLLRELGFPDELKIEIDPVGDDKGRIIYPVTIEVNVPELAEKASAGGS [r8_85_TrMRF] ?
# output 2.62 kcal/mol

----------
Assay: folding stability dG unfold (combined trypsin and chymotrypsin); higher = more stable
# cutoff 1 kcal/mol applies to folding stability dG unfold; >= gives true, < gives false

Example entries and their recorded answers appear below.
SAGGPPIKKIEITKIHPGKGIIQVSIKLPGDGHPIMVRAEIDDPEPGKIKIEIQDPNNGQPQEITIKFSAGG [r13_337_TrROS] : true
SAEPKRYYALVVKRPDGKWLVFYFEDVEEGRERFEEFLRKEFPEDFEVELFEVEPSEAESIEKLLEALGSAG [r14_900_TrMRF] : true
SAGGSAGGSAGVIRVKLKDGPVREIPLEDVPPELLNTPELLAAIEALAREAGYEIESIEASAGGSAGGSAGG [r11_467_TrMRF] : true
SAGGSAGMSTVTVPLTVELVDPNNGNLKKVIERPLTVPAELSLDEVKEIVREEAKKEGLTIAKILLSAGGSA [r15_195_JUSTAS] : false
SAGGSAGGSMPKTYSFKVKSKEEIVKLIEELKKLGAKKVEVKELPDGYELYVEVGDSVIKVYSSAGGSAGGS [r12_846_TrMRF] : true
SAFKIERDPGNGQRKIKIEIPIIFPMGPEMRNMFKNMIKQWLAKHNPNVDIEIDIIPVKSPEQALEQIGSAG [r14_406_TrROS] : true

# input Reported folding stability dG unfold reaches at least 1 kcal/mol for SAGGSAGGTSVADELEEEFKAKGYPAEVTVTKLPDDTTLVTVTVTDPKTGKSTTTTVTVSPAEASAGGSAGG [r6_692_JUSTAS] ?
# output false

# input Reported folding stability dG unfold reaches at least 1 kcal/mol for SAGGSAGGSAGMKIKTKNGEVIEIKVDKKTGKIEITFPDGKKITIDAPNLTIEDIKKLLESAGGSAGGSAGG [r11_729_TrMRF] ?
# output true

# input Reported folding stability dG unfold reaches at least 1 kcal/mol for SAGGSAGGSAGAPPDVEEVTVTVTITNPDGSTTTTTVTATPEELAALAAAPGRPTAVSAESAGGSAGGSAGG [r17_313_JUSTAS] ?
# output false

# input Reported folding stability dG unfold reaches at least 1 kcal/mol for SAGGSAGGSPNPKVVPFTFPVVIPDEDGHPYLVNVTVTAIPDTDTYYARITYPDGRVEDFVLASAGGSAGGS [r12_286_TrMRF] ?
# output true
